Values were extracted from patent US20240342292A1.

- TARGET DESC: L858R/T790M/C797S EGFR (Homo sapiens, UniProt P00533, C797S/L858R/T790M)
- Construct: expressed in transfected cells; host or cells: H1975 clone #25 (lentiviral over-expression, endogenous EGFR knocked out by sgRNA)
- Sequence (P00533 25-1210 T790M/C797S/L858R): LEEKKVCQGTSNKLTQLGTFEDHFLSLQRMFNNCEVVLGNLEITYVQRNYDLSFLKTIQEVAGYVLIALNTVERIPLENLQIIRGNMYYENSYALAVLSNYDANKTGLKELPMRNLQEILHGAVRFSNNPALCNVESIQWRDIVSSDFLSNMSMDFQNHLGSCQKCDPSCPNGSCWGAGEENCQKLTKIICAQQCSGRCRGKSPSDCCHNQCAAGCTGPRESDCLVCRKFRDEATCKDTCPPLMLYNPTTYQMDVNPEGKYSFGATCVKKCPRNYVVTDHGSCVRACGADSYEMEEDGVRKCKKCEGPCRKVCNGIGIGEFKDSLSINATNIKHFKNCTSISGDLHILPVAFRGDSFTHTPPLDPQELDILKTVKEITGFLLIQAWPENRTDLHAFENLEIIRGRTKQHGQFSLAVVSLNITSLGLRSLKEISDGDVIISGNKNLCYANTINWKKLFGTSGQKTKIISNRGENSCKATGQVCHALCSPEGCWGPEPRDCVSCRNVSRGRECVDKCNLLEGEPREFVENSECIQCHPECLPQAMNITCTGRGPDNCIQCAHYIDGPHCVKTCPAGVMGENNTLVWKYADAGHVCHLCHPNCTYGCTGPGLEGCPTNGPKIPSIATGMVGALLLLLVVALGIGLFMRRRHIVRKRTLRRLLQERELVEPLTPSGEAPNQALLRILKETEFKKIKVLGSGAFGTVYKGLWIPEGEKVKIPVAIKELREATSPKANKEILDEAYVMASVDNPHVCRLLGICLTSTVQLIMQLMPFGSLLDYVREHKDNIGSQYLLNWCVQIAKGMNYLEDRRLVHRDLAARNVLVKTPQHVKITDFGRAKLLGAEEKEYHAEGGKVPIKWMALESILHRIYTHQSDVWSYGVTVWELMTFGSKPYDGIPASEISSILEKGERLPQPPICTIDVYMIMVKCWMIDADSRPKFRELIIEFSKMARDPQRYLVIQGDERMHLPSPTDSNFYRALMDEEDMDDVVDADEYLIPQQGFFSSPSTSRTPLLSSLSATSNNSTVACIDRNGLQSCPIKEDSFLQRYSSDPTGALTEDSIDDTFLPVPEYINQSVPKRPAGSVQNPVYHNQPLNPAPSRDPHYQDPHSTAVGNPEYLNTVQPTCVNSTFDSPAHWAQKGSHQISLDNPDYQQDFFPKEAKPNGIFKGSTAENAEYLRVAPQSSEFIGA
- MEASUREMENT DESCRIPTION: EGFR degradation HTRF assay in H1975-clone #25 (LTC) cells
- Format: cell-based
- RUN PARAMETERS: NCI-H1975, H1975 # 25-LTC (L858R/T790M/C797S), 16h treatment, maximum percentage of degradation
PARAMETER: Dmax (%)

COMPOUND: Cc1cc2cc(n1)-c1cnn(C)c1OCC[C@@H]1C[C@H]1CN1/C(=N/C2=O)Nc2ccc(N3CCC(C(=O)N4CCN(c5cc(F)c([C@H]6CCC(=O)NC6=O)c(F)c5)CC4)CC3)cc21 [Example 367]
Dmax (%): 87.8

COMPOUND: Cc1cc2cc(n1)-c1cnn(C)c1OCCC[C@@H](C)CN1/C(=N/C2=O)Nc2ccc(N3CCN(C(=O)[C@@H]4CN(c5cc(F)c([C@H]6CCC(=O)NC6=O)c(F)c5)CC4(C)C)CC3)cc21 [Example 326]
Dmax (%): 88.9

COMPOUND: Cc1cc2cc(n1)-c1cnn(C)c1OCCC[C@@H](C)CN1/C(=N/C2=O)Nc2ccc(C(=O)N(C)[C@@H]3CCN(C4CN(c5cc(F)c([C@H]6CCC(=O)NC6=O)c(F)c5)C4)C[C@@H]3F)cc21 [Example 382]
Dmax (%): 87.5

COMPOUND: Cc1cc2cc(n1)-c1cnn(C)c1OCCC[C@@H](C)CN1/C(=N/C2=O)Nc2ccc(N3CC(NC4CCN(c5cc(F)c([C@H]6CCC(=O)NC6=O)c(F)c5)CC4)C3)cc21 [Example 454]
Dmax (%): 86

COMPOUND: Cc1cc2cc(n1)-c1cnn(C)c1OCCC[C@@H](C)CN1/C(=N/C2=O)Nc2ccc(N3CCN(C4CCN(c5cc(F)c([C@H]6CCC(=O)NC6=O)c(F)c5)CC4)[C@@H](CC#N)C3)cc21 [Example 452]
Dmax (%): 78.5

COMPOUND: Cc1cc2cc(n1)-c1cnn(C)c1OCCC[C@@H](C)CN1/C(=N/C2=O)Nc2ccc(C(=O)N(C)[C@@H]3CCCN(CCc4cc(F)c([C@H]5CCC(=O)NC5=O)c(F)c4)CC3)cc21 [Example 292]
Dmax (%): 89.4

COMPOUND: Cc1cc2cc(n1)-c1cnn(C)c1OCCC[C@@H](C)CN1/C(=N/C2=O)Nc2ccc(C(=O)N(C)C3CCN(CC4CN(c5cc(F)c([C@H]6CCC(=O)NC6=O)c(F)c5)C4)CC3)cc21 [Example 286]
Dmax (%): 91.2

COMPOUND: Cc1cc2cc(n1)-c1cnn(C)c1OCCC[C@@H](C)CN1/C(=N/C2=O)Nc2ccc(C(=O)N(C)[C@@H]3C[C@H]4CC[C@@H](C3)N4CCc3cc(F)c([C@H]4CCC(=O)NC4=O)c(F)c3)cc21 [Example 265]
Dmax (%): 90.9

COMPOUND: Cc1cc2cc(n1)-c1cnn(C)c1OCCC[C@@H](C)CN1/C(=N/C2=O)Nc2ccc(N3CCN(CCN(C)c4cc(F)c([C@H]5CCC(=O)NC5=O)c(F)c4)CC3)cc21 [Example 407]
Dmax (%): 87.9

COMPOUND: Cc1cc2cc(n1)-c1cnn(C)c1OCCC[C@@H](C)CN1/C(=N/C2=O)Nc2ccc(C(=O)N(C)CC(F)(F)C3CCN(CCc4cc(F)c([C@H]5CCC(=O)NC5=O)c(F)c4)CC3)cc21 [Example 275]
Dmax (%): 88.9

====

- TARGET DESC: L858R/T790M/C797S EGFR (Homo sapiens, UniProt P00533, C797S/L858R/T790M)
- Construct: expressed in transfected cells; host or cells: H1975 clone #25 (lentiviral over-expression, endogenous EGFR knocked out by sgRNA)
- MEASUREMENT DESCRIPTION: EGFR degradation HTRF assay in H1975-clone #25 (LTC) cells
- Format: cell-based
- RUN PARAMETERS: NCI-H1975, H1975 # 25-LTC (L858R/T790M/C797S), 16h treatment, maximum percentage of degradation
PARAMETER: Dmax (%)

COMPOUND: Cc1cc2cc(n1)-c1cnn(C)c1OCCC[C@@H](C)CN1/C(=N/C2=O)Nc2ccc(C(=O)NC3CN(CCc4cc(F)c([C@H]5CCC(=O)NC5=O)c(F)c4)C3)cc21 [Example 307]
TARGET DESC: L858R/T790M/C797S EGFR (Homo sapiens, UniProt P00533, C797S/L858R/T790M)
Dmax / %: 84.8

COMPOUND: Cc1cc2cc(n1)-c1cnn(C)c1OCCC[C@@H](C)CN1/C(=N/C2=O)Nc2ccc(C(=O)N(C)[C@H]3CCN(CCNc4cc(F)c([C@H]5CCC(=O)NC5=O)c(F)c4)C[C@@H]3F)cc21 [Example 352]
TARGET DESC: L858R/T790M/C797S EGFR (Homo sapiens, UniProt P00533, C797S/L858R/T790M)
Dmax / %: 85.6

COMPOUND: COC[C@H]1CN(C(=O)[C@@H]2CCN(c3cc(F)c([C@H]4CCC(=O)NC4=O)c(F)c3)C2)CCN1Cc1ccc2c(c1)N1C[C@H](C)CCCOc3c(cnn3C)-c3cc(cc(C)n3)C(=O)/N=C/1N2 [Example 194]
TARGET DESC: L858R/T790M/C797S EGFR (Homo sapiens, UniProt P00533, C797S/L858R/T790M)
Dmax / %: 84.4

COMPOUND: Cc1cc2cc(n1)-c1cnn(C)c1OCCC[C@@H](C)CN1/C(=N/C2=O)Nc2ccc(C(=O)N[C@H]3CCN(CCc4cc(F)c([C@H]5CCC(=O)NC5=O)c(F)c4)CC3(C)C)cc21 [Example 261]
TARGET DESC: L858R/T790M/C797S EGFR (Homo sapiens, UniProt P00533, C797S/L858R/T790M)
Dmax / %: 91.8

COMPOUND: Cc1cc2cc(n1)-c1cnn(C)c1OCCC[C@@H](C)CN1/C(=N/C2=O)Nc2ccc(C(=O)N[C@@H]3CCN(CCc4cc(F)c([C@H]5CCC(=O)NC5=O)c(F)c4)C[C@@H]3F)cc21 [Example 246]
TARGET DESC: L858R/T790M/C797S EGFR (Homo sapiens, UniProt P00533, C797S/L858R/T790M)
Dmax / %: 93.8

====

- TARGET DESC: L858R/T790M/C797S EGFR (Homo sapiens, UniProt P00533, C797S/L858R/T790M)
- Construct: expressed in transfected cells; host or cells: H1975 clone #25 (lentiviral over-expression, endogenous EGFR knocked out by sgRNA)
- MEASUREMENT DESCRIPTION: EGFR degradation HTRF assay in H1975-clone #25 (LTC) cells
- Type: cell-based
- RUN PARAMETERS: H1975 # 25-LTC (L858R/T790M/C797S), 16h treatment, HTRF
PARAMETER: DC50 (nM)

I. Cc1cc2cc(n1)-c1cnn(C)c1OCCC[C@@H](C)CN1/C(=N/C2=O)Nc2ccc(N3CCC(C(=O)N4CCC(Nc5cc(F)c([C@H]6CCC(=O)NC6=O)c(F)c5)CC4)CC3)cc21
II. Cc1cc2cc(n1)-c1cnn(C)c1OCCC[C@@H](C)CN1/C(=N/C2=O)Nc2ccc(N3CCN(C4CCN(c5cc(F)c([C@H]6CCC(=O)NC6=O)c(F)c5)CC4)C[C@@H]3C)cc21
In: Problem: Given the entries I and II , determine which has the lower reported DC50. Give the chosen item's label as your response.
Out: I

====

- TARGET DESC: L858R/T790M/C797S EGFR (Homo sapiens, UniProt P00533, C797S/L858R/T790M)
- Construct: expressed in transfected cells; host or cells: H1975 clone #25 (lentiviral over-expression, endogenous EGFR knocked out by sgRNA)
- MEASUREMENT DESCRIPTION: EGFR degradation HTRF assay in H1975-clone #25 (LTC) cells
- Assay type: cell-based
- RUN PARAMETERS: H1975 # 25-LTC (L858R/T790M/C797S), 16h treatment, HTRF
PARAMETER: DC50 (nM)

MOLECULE: Cc1cc2cc(n1)-c1cnn(C)c1OCCC[C@@H](C)CN1/C(=N/C2=O)Nc2ccc(CC3CCN(C(=O)C4CN(c5cc(F)c([C@H]6CCC(=O)NC6=O)c(F)c5)C4)CC3)cc21
DC50 [nM]: 1.48

a. Cc1cc2cc(n1)-c1cnn(C)c1OCCC[C@@H](C)CN1/C(=N/C2=O)Nc2ccc(N3CCN(C4CCN(c5cc(F)c([C@H]6CCC(=O)NC6=O)c(F)c5)CC4)[C@H](CO)C3)cc21
b. Cc1cc2cc(n1)-c1cnn(C)c1OCCC[C@@H](C)CN1/C(=N/C2=O)Nc2ccc(N3CCC(N4CCN(c5cc(F)c([C@H]6CCC(=O)NC6=O)c(F)c5)CC4)CC3)cc21
In: Problem: Given the entries a and b , determine which has the lower reported DC50. Give the chosen item's label as your response.
Out: a
(a: 0.652 nM, b: 1.46 nM)

A. Cc1cc2cc(n1)-c1cnn(C)c1OCCC[C@@H](C)CN1/C(=N/C2=O)Nc2ccc(C(=O)N(C)C3CCC(N(C)CCc4cc(F)c([C@H]5CCC(=O)NC5=O)c(F)c4)CC3)cc21 (some centres unmarked)
B. Cc1cc2cc(n1)-c1cnn(C)c1OCCC[C@@H](C)CN1/C(=N/C2=O)Nc2ccc(CN(C)[C@H]3CCCN(C(=O)[C@@H]4CCN(c5cc(F)c([C@H]6CCC(=O)NC6=O)c(F)c5)C4)C3)cc21
In: Problem: Given the entries A and B , determine which has the lower reported DC50. Give the chosen item's label as your response.
Out: A
